Everything with logP lower than 2 is False; everything else, including exactly 2, is True.

>>> assigned_category("COC(=O)c1cnc2n(c1=O)C(C(C)C)CCC2 (centres undefined)")
"False"
>>> assigned_category("ClCc1ccccc1")
"True"
>>> assigned_category("O=S(=O)(c1ccccc1)c1cccc2cccnc12")
"True"

# input API: above_or_equal(metric=logP, cutoff=2) for item COCC(=O)N(c1c(C)cccc1C)C(C)C(=O)OC (centres undefined)
# output False

# input API: above_or_equal(metric=logP, cutoff=2) for item Cc1cccc(OCC(O)CNC(C)C)c1 (centres undefined)
# output False

# input API: above_or_equal(metric=logP, cutoff=2) for item CCCC(=NOCC)C1C(=O)CC2(CCC(C)CC2)OC1=O (centres undefined)
# output True

# input API: above_or_equal(metric=logP, cutoff=2) for item NC(=O)COc1ccccc1
# output False

# input API: above_or_equal(metric=logP, cutoff=2) for item O=C1C=C(N2CCCC2)C(=O)c2ccccc21
# output True

# input API: above_or_equal(metric=logP, cutoff=2) for item O=c1[nH]c2ccccc2o1
# output False

# input API: above_or_equal(metric=logP, cutoff=2) for item O=P(c1ccccc1)(c1ccccc1)c1ccccc1
# output True

# input API: above_or_equal(metric=logP, cutoff=2) for item NC(=O)C1CCCN1C(=O)C(Cc1cn(C(=O)OCc2ccccc2)cn1)NC(=O)C1CCC(=O)N1 (centres undefined)
# output False

# input API: above_or_equal(metric=logP, cutoff=2) for item CC(C)NC(=O)NO
# output False

# input API: above_or_equal(metric=logP, cutoff=2) for item C#CC(C)OC(=O)Nc1ccc(OCC)c(OCC)c1 (centres undefined)
# output True

# input API: above_or_equal(metric=logP, cutoff=2) for item CNC(=NC#N)NCCSCc1ncccc1OC
# output False

# input API: above_or_equal(metric=logP, cutoff=2) for item ICCCI
# output True

# input API: above_or_equal(metric=logP, cutoff=2) for item COc1c(O)cc2c(c1OC)-c1ccc(SC)c(=O)cc1C(NC(=O)C(F)(F)F)CC2 (centres undefined)
# output True

# input API: above_or_equal(metric=logP, cutoff=2) for item CC(O)C(C)O (centres undefined)
# output False

# input API: above_or_equal(metric=logP, cutoff=2) for item CN1CCN(CC(=O)N/N=C/c2ccc([N+](=O)[O-])o2)CC1
# output False

# input API: above_or_equal(metric=logP, cutoff=2) for item O=C(O)COc1ccc(Cl)c(Cl)c1
# output True

# input API: above_or_equal(metric=logP, cutoff=2) for item O=c1oc2ccccc2c(O)c1Cc1c(O)c2ccccc2oc1=O
# output True

# input API: above_or_equal(metric=logP, cutoff=2) for item CCCC(O)CCC
# output True

# input API: above_or_equal(metric=logP, cutoff=2) for item c1ccc(C2CNCCO2)cc1 (centres undefined)
# output False

# input API: above_or_equal(metric=logP, cutoff=2) for item O=[N+]([O-])c1ccccc1O
# output False

# input API: above_or_equal(metric=logP, cutoff=2) for item CON(C)C(=O)Nc1ccc([N+](=O)[O-])cc1
# output False
